# Test system: RPMI-8226 leukemia
# measurementNotes: NCI tumour cell line growth inhibition, 48 h
recordedEndpoint: TGI

Sample answers from the record:
Cc1ccc([N+](=O)[O-])cc1S(=O)(=O)Nc1ccc(C2=NN(S(=O)(=O)c3cc([N+](=O)[O-])ccc3C)C(c3ccccc3O)C2)cc1 (centres undefined)	> 100 µM
Cc1csc(NCc2ccc(Cl)cc2)n1	> 100 µM
C=C(C)[C@@H]1CC[C@]2(C(=O)O)CC[C@]3(C)[C@H](CC[C@@H]4[C@@]5(C)CCC(N)C(C)(C)[C@@H]5CC[C@]43C)[C@@H]12 (some centres undefined)	5.21 µM
C=CC[PH+](c1ccccc1)c1ccccc1.C=CC[PH+](c1ccccc1)c1ccccc1.[Pt+2].[S-]c1nc2ccccc2[nH]1.[S-]c1nc2ccccc2[nH]1	3.22 µM
O=C(NOCCO)c1ccc2cncn2c1Nc1ccc(I)cc1F	> 100 µM

Kindly give each listed record's TGI.
1. CN(C)NC(=O)NC12CC3CC(CC(C3)C1)C2
2. CCOC(=O)c1c(N2CCN(C)CC2)[nH]c(=O)c(C(c2c(Cl)cccc2Cl)c2c(O)c(C(=O)OCC)c(N3CCN(C)CC3)[nH]c2=O)c1O
3. O=C1c2ccc3c4c(ccc(c24)C(=O)N1CCCCO)C(=O)N(CCCCO)C3=O
4. O=C1OCc2nc3c(c(-c4ccccc4C(F)(F)F)c21)C(=O)OC3
5. Cc1ccc2nc(CN(CCN(Cc3nc4ccc(C)cc4[nH]3)Cc3nc4ccc(C)cc4[nH]3)Cc3nc4ccc(C)cc4[nH]3)[nH]c2c1
6. COc1cccc(C2c3cc4c(cc3OC(NNS(=O)(=O)c3ccc(C)cc3)C2C)OCO4)c1O (centres undefined)
7. O=[N+]([O-])c1ccc(N=P(c2ccccc2)(c2ccccc2)c2ccccc2)n2nnnc12
8. O=S(c1ccc(O)cc1)c1ccc(O)cc1

stdout:
1: > 100 µM; 2: > 100 µM; 3: 14.3 µM; 4: > 100 µM; 5: 2.95 µM; 6: 32.4 µM; 7: > 100 µM; 8: > 100 µM

Please look at the items below and tell me TGI for each one, in order.
1. CCOc1c2c(cc3c1C(=O)c1c(OC)cccc1C3=O)C=C(OC)CC2
2. NC1(C(=O)O)CCC(C(=O)O)CC1 (centres undefined)
3. CC1=Nc2ccccc2S/C1=C1/C=NC(=NC#N)N=C1C(=O)Nc1cccc(Cl)c1
4. Cc1n[nH]c(=O)c2c3c([nH]c12)-c1ccccc1C3
5. O=C1C=C2SC3C[C@@]24CC1(O)[N+]1=c2c4c(c(O)c4c2=C(C=N4)CC1)N3
6. CC(NC(CC12CC3CC(CC(C3)C1)C2)C(N)=O)c1ccccc1 (centres undefined)
7. CCOC(=O)C(=O)CC(=O)C(Br)C(Br)c1ccc(Cl)cc1 (centres undefined)

stdout:
["> 25 µM", "> 100 µM", "> 100 µM", "> 100 µM", "1.62 µM", "40.5 µM", "51.8 µM"]

Hi team, please reply with TGI for each item in this list.
1. CCOC(=O)c1c(CN2CCCCC2)nc2ccc(Cl)cc2c1-c1ccccc1
2. O=C(Cn1c(=O)oc2ccccc21)N(c1ccccc1)c1ccccc1
3. Nc1nc(N)c(CCCCc2ccc([N+](=O)[O-])cc2)c(N)n1
4. N#C/C(=C/c1ccc([N+](=O)[O-])o1)c1ccccc1
5. Clc1ccc(Cc2nc3cc4ccccc4cc3[nH]2)cc1Cl
6. Nc1ncc(CN2CCCC2)c(-c2ccccc2O)n1
7. N#Cc1c(N)oc2cc3c(C#N)c(N)oc3cc12

stdout:
1: 46.2 µM; 2: > 100 µM; 3: > 100 µM; 4: > 100 µM; 5: > 100 µM; 6: > 750 µM; 7: > 100 µM

Provide reported TGI for each item, in the same order as listed.
1. COC(=O)[C@@H]1CN(C(=O)Cc2ccccc2)C(=O)N1
2. O=C(O)CN(CCN(CC(=O)O)CC(=O)O)CC(=O)O.[Cu+2].[Na+]

stdout:
1. > 100 µM
2. > 100 µM
